System: Human gammaherpesvirus 4
Assay protocol: Antiviral activity against Epstein-Barr virus in human H1 cells by DNA hybridization assay
Format: functional, organism-based
Assay conditions: human gammaherpesvirus 4, H1

Molecule | EC50
Nc1nc(O)c2ncn(/C=C3/CC34COP(=O)(O)OC4)c2n1 (stereo unspecified) | > 20 µM

###

Assay protocol: Cytotoxicity against human Akata cells
Type: cell-based
Assay conditions: Akata cells
Endpoint: CC50

Molecule | Endpoint | Readout value
Nc1nc2c(ncn2/C=C2/CC2(CO)CO)c(=O)[nH]1 [FILOCICLOVIR] | CC50 | 46 µM
Nc1nc2c(ncn2/C=C2/CC2(CO)CCP(=O)(O)O)c(=O)[nH]1 (configuration not stated) | CC50 | > 100 µM
